- Test system: HCT-15
- PROTOCOL NOTES: Growth inhibition of human HCT15 cells after 48 hrs by sulforhodamine B assay
- Format: functional
- COND: HCT-15, 48 h
Reported values of GI50 for individual entries
VALUE KIND: GI50 (µM)

ENTRY SMILES | RECORDED VALUE
CCCCCCCCCCCCO[C@@H]1O[C@@H](C)[C@H](O[C@@H]2O[C@@H](C)[C@H](OC(C)=O)[C@@H](O[C@@H]3O[C@@H](C)[C@H](OC(C)=O)[C@@H](O[C@@H]4O[C@@H](C)[C@H](OC(C)=O)[C@@H](O)[C@H]4O)[C@H]3OC(C)=O)[C@H]2O)[C@@H](O)[C@H]1O | 7.54
CCCCCCCCCCCCO[C@@H]1O[C@@H](C)[C@H](O[C@@H]2O[C@@H](C)[C@H](OC(C)=O)[C@@H](O[C@@H]3O[C@@H](C)[C@H](OC(C)=O)[C@@H](O[C@@H]4O[C@@H](C)[C@H](O)[C@@H](O)[C@H]4OC(C)=O)[C@H]3OC(C)=O)[C@H]2O)[C@@H](O)[C@H]1O | 8.33
CCCCCCCCCCCCO[C@@H]1O[C@@H](C)[C@H](O[C@@H]2O[C@@H](C)[C@H](OC(C)=O)[C@@H](O[C@@H]3O[C@@H](C)[C@H](OC(C)=O)[C@@H](O[C@@H]4O[C@@H](C)[C@H](OC(C)=O)[C@@H](O)[C@H]4OC(C)=O)[C@H]3OC(C)=O)[C@H]2O)[C@@H](O)[C@H]1O | 1.01

The values you see were collected from ChEMBL document CHEMBL2203229.
